# key: entry, value: half-life
- assayOverview: Degradation in vitro by alpha-chymotrypsin.
- Format: ADME
Bridge positions count the residues as written; N and C are the ends. Square brackets hold non-standard residues; d marks the D form. Peptide text beside a SMILES is read from it. * marks the point of attachment. X2 = CC(=O)OC[C@@H]1O[C@@H](*)[C@@H](OC(C)=O)[C@@H](OC(C)=O)[C@H]1OC(C)=O; X1 = OC[C@@H]1O[C@@H](*)[C@@H](O)[C@@H](O)[C@H]1O; Mpa = O=C(O)CCS

{"columns": ["compound", "half-life (min)"],
 "data": [
  ["NC(=O)CNC(=O)[C@H](CCCN=C(N)N)NC(=O)[C@@H]1CCCN1C(=O)[C@@H]1CSSCCC(=O)N[C@@H](Cc2ccc(O)cc2)C(=O)N[C@@H](Cc2ccccc2)C(=O)N[C@@H](CO[C@@H]2O[C@@H](CO)[C@H](O)[C@H](O)[C@@H]2O)C(=O)N[C@@H](CC(N)=O)C(=O)N1 ([Mpa]YFS(X1)NCPRG-NH2; disulfide 1-6)", 37],
  ["NC(=O)CNC(=O)[C@@H](CCCN=C(N)N)NC(=O)[C@@H]1CCCN1C(=O)[C@@H]1CSSCCC(=O)N[C@H](Cc2ccc(O)cc2)C(=O)N[C@@H](Cc2ccccc2)C(=O)N[C@@H](CO)C(=O)N[C@@H](CC(N)=O)C(=O)N1", 37],
  ["NC(=O)CC[C@@H]1NC(=O)[C@H](Cc2ccccc2)NC(=O)[C@H](Cc2ccc(O)cc2)NC(=O)CCSSC[C@@H](C(=O)N2CCC[C@H]2C(=O)N[C@H](CCCN=C(N)N)C(=O)NCC(N)=O)NC(=O)[C@H](CC(N)=O)NC1=O [DESMOPRESSIN]", 13],
  ["CC(=O)OC[C@@H]1O[C@@H](OC[C@@H]2NC(=O)[C@H](Cc3ccccc3)NC(=O)[C@H](Cc3ccc(O)cc3)NC(=O)CCSSC[C@@H](C(=O)N3CCC[C@H]3C(=O)N[C@@H](CCCN=C(N)N)C(=O)NCC(N)=O)NC(=O)[C@H](CC(N)=O)NC2=O)[C@@H](OC(C)=O)[C@@H](OC(C)=O)[C@H]1OC(C)=O ([Mpa]YFS(X2)NCPRG-NH2; disulfide 1-6)", 180]
]}
